- Test system: Vero E6 infected with SARS-CoV-2
- Assay Summary: inhibition of SARS-CoV-2 cytopathic effect; higher = more antiviral protection, active = above 15
- Stated Conditions: 100 nM; 48 h
Measured Quantity: inhibition of SARS-CoV-2 cytopathic effect (%)
Quick note: give the figure in %, leave out the unit.

compound=CNCCCN1c2ccccc2CCc2ccccc21 measured=-1.22
compound=C[C@]12CC[C@H](O)CC1=CC[C@@H]1[C@@H]2CC[C@]2(C)C(n3cnc4ccccc43)=CC[C@@H]12 measured=0.05
compound=CC(C)(C)c1ccc(S(=O)(=O)/C=C/C#N)cc1 measured=0.24

Challenge: Give the measured inhibition of SARS-CoV-2 cytopathic effect of "CN[C@H]1CN(c2ccc3c(=O)c(C(=O)O)cn(-c4nccs4)c3n2)C[C@@H]1OC" .
Response given: 2.62

Challenge: Give the measured inhibition of SARS-CoV-2 cytopathic effect of "COc1ccc(-c2csc(NC(=O)[C@H]3CCCCN3S(=O)(=O)c3ccc(C)cc3)n2)cc1" .
Response given: 1.23

Challenge: Give the measured inhibition of SARS-CoV-2 cytopathic effect of "N[C@H](C(=O)O)c1ccc(O)cc1" .
Response given: 2.38

Challenge: Give the measured inhibition of SARS-CoV-2 cytopathic effect of "NC(=O)CC[C@H](N)C(=O)O" .
Response given: 0.59

Challenge: Give the measured inhibition of SARS-CoV-2 cytopathic effect of "O=C1CCCC(=O)C1C(=O)c1ccc(C(F)(F)F)cc1[N+](=O)[O-]" .
Response given: -0.21

Challenge: Give the measured inhibition of SARS-CoV-2 cytopathic effect of "CNC(=C[N+](=O)[O-])NCCSCc1ccc(CN(C)C)o1" .
Response given: 2.56

Challenge: Give the measured inhibition of SARS-CoV-2 cytopathic effect of Cc1c(OCC(F)(F)F)ccnc1C[S+]([O-])c1nc2ccccc2[nH]1 (stereo not given) .
Response given: -0.31

Hello, the source for this data is the supplement of paper PMC13380429, in case you need it.
